Species: Rattus norvegicus
PROTOCOL: Open TG-GATES - Regimen: Single
Assay type: toxicity, organism-based, Sprague-Dawley
Set-up: regimen Single, gender Male, age 6 weeks
TEST PARAMETERS: in vivo, po, 300 mg/kg, 9 h, tissue Blood, route gavage, dose level Middle
RESULT TYPE: Lym
Put your answer as a value accompanied by its unit after it.

## Input Given O=C(O)c1cn(C2CC2)c2cc(N3CCNCC3)c(F)cc2c1=O , state its recorded Lym.
## Output 81%

## Input Proceed to Clc1ccccc1CN1CCc2sccc2C1
## Output 76%

## Input // repeat for C[C@H](CS)C(=O)N1CCC[C@H]1C(=O)O and report
## Output 79.2%

## Input // query: O=C(O)c1cc(/N=N/c2ccc(S(=O)(=O)Nc3ccccn3)cc2)ccc1O
## Output 72.8%

## Input Okay, and CCc1cc(C(N)=S)ccn1 [ETHIONAMIDE] ?
## Output 68.8%
